- target: T1, (7× His)-PSD-95-PDZ2 wild type (UniProt P78352 160-246)
- T1 construct: domain: PDZ2; recombinant from E. coli; also called PSD-95-PDZ2 WT; not shown: 7x His tag
- T1 sequence (P78352 160-246): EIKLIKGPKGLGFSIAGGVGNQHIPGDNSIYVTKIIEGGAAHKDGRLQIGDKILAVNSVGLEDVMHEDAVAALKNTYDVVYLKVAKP
- assayExplanation: FP competition
readoutKind: Ki (nM)
Please give a number only; it is taken to be in nM.

THLETTFTGDGTPXTIRVTQPGQ (cyclic; D-Pro; N-methyl Lys 118) [cyclic nNOS β-hairpin peptide N-Me-K118]    480
THLETTFTGXGTPKTIRVTQPGQ (cyclic; D-Pro; N-methyl Asp 114) [cyclic nNOS β-hairpin peptide N-Me-D114]    620
THLETTFTGDXTPKTIRVTQPGQ (cyclic; D-Pro; N-methyl Gly 115) [cyclic nNOS β-hairpin peptide N-Me-G115]    820
THLETTFXGDGTPKTIRVTQPGQ (cyclic; D-Pro; N-methyl Thr 112) [cyclic nNOS β-hairpin peptide N-Me-T112]    1080
THLETXFTGDGTPKTIRVTQPGQ (cyclic; D-Pro; N-methyl Thr 110) [cyclic nNOS β-hairpin peptide N-Me-T110]    1470

Request: Give Ki for THLETTFTGDGTPKTIRVXQPGQ (cyclic; D-Pro; N-methyl Thr 123) [cyclic nNOS β-hairpin peptide N-Me-T123]
Response: 580

Request: Give Ki for XHLETTFTGDGTPKTIRVTQPGQ (cyclic; D-Pro; N-methyl Thr 105) [cyclic nNOS β-hairpin peptide N-Me-T105]
Response: 4800
